# kon values compiled below
target: T1, human Trop-2-His (human, UniProt P09758 27-274, limits assumed)
T1 construct: by analogy with the macaque construct it is probably the extracellular domain with a His tag; also called Trop-2-His protein
T1 sequence: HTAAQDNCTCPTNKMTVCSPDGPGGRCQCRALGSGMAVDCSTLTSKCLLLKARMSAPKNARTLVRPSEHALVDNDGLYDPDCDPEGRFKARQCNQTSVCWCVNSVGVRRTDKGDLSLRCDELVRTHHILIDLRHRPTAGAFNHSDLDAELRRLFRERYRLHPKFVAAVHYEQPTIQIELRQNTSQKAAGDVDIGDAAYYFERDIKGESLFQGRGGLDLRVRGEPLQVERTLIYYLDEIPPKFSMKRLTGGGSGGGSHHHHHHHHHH
method: SPR (Biacore 8K), antibody captured, Trop-2-His as analyte
// return numeric value only (unit: M⁻¹ s⁻¹, not printed)

Data request: Which kon value belongs to hz-Ab21-1.1 (antibody, human IgG1, kappa, V domains shown, Humanized antibody) VH: EVQLVESGGGLVKPGGSLRLSCAASGFTLRNYGVHWVRQAPGKGLEWVGVIWSSGTTDYAAPVKGRFTISKDNSKNTLYLQMNSLKTEDTAVYYCTRDGDYDYYTMDYWGQGTLVTVSS VL: EIVLTQSPATLSLSPGERATLSCRASKSVSTSAYSYIHWYQQKPGQAPRLLIYLTSNLESGIPARFSGSGSGTDFTLTISSLEPEDFAVYYCQHSRELPYTFGQGTKVEIKR ?
Data returned: 429000

Data request: Which kon value belongs to hz-Ab21-1.2 (antibody, human IgG1, kappa, V domains shown, Humanized antibody) VH: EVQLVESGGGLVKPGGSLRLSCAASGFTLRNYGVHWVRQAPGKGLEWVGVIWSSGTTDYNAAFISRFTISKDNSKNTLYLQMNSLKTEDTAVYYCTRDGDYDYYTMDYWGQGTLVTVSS VL: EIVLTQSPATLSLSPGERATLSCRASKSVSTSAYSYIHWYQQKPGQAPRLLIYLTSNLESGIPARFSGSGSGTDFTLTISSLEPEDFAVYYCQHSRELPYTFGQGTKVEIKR ?
Data returned: 450000
